# Tested on: 4 PI3K isoforms (Human recombinant GST-PI3K)
# procedure.summary: PI3K scintillation proximity assay, best IC50 obtained with the four isoforms (alpha, beta, delta, gamma)
# Assay type: biochemical
# experimental.parameters: best IC50 obtained with the four isoforms of PI3K; read-out: Best potency measured on the 4 PI3K isoforms
Here, each record is paired with measured log10(IC50) data.
Units before log transform: nM; reported quantity: IC50; transform: log10.

Worked examples, 3 compounds total:
O=C(c1nn(-c2ccc(CN3CCCCC3)cc2)c2c1CS(=O)(=O)c1ccccc1-2)N1CCOCC1 [Example 169] ... 2.04
CC1(C)CCCC(n2nc(C(=O)N3CCOCC3)c3c2-c2ccccc2S(=O)(=O)C3)C1 (stereo not drawn) [Example 171] ... 2.70
CC(=O)Nc1cccc2c1S(=O)(=O)Cc1c(C(=O)N3CCOCC3)nn(-c3ccccc3)c1-2 [Example 322] ... 3.99

Problem: Which log10(IC50) is reported for this compound? O=C(c1nn(C2CCCCC2)c2c1CS(=O)(=O)c1sccc1-2)N1CCOCC1 [Example 201]
Result: 2.48

Problem: Which log10(IC50) is reported for this compound? O=C(c1nn(C2CCN(CCN3CCOCC3)C2)c2c1CS(=O)(=O)c1ccccc1-2)N1CCOCC1 (stereo not drawn) [Example 275]
Result: 2.28
